test: Observed C24 in P1093; type: in vivo; details: human, plasma, oral, 10 mg, Geometric mean C24, P1093; ≥ 6 to < 10 kg; ≥ 6 months of age; DT 10 mg QD
valueKind: concentration at 24 h (ng/mL)
Numbers only, in ng/mL.

Req: I would be grateful if you could share the reported concentration at 24 h for C[C@@H]1CCO[C@H]2Cn3cc(C(=O)NCc4ccc(F)cc4F)c(=O)c(O)c3C(=O)N12 [dolutegravir, Dolutegravir] .
Resp: 735

###

test: Observed C24 in P1093; assay type: in vivo; conditions: human, plasma, oral, 10 mg, Geometric mean C24, P1093; ≥ 6 to < 10 kg; < 6 months of age; DT 10 mg QD
valueKind: concentration at 24 h (ng/mL)
One number for each entry, in ng/mL.

Req: // concentration at 24 h lookup, key: C[C@@H]1CCO[C@H]2Cn3cc(C(=O)NCc4ccc(F)cc4F)c(=O)c(O)c3C(=O)N12 [dolutegravir, Dolutegravir]
Resp: 1820

Reference source: paper PMC10520196
